Target: Avi-KRAS G12C (1-169) GppNHp/RAF1 RBD-3×FLAG (52-151) (Homo sapiens, UniProt P01116, G12C)
Construct: Avi-KRAS G12C (1-169) GppNHp
Sequence (P01116 1-169 isoform P01116-2 G12C limits assumed): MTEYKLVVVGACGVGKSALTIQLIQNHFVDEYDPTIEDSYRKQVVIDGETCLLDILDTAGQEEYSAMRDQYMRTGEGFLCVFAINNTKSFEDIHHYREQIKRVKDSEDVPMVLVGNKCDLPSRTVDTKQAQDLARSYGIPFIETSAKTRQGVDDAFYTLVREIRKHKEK
Experiment: KRAS G12C-effector (RAF1 RBD) protein:protein interaction HTRF disruption assay
Settings: PPI HTRF
Measurement kind: IC50

Example results:
Please report the recorded IC50 for C=CC(=O)N1CCC(N(CC)c2nc(OC[C@@]34CCCN3C[C@H](F)C4)nc3c(Cl)c(-c4ccc(F)c5sc(N)c(C#N)c45)ncc23)[C@H]1CC (stereo partly drawn) .
≤ 500 nM

Please report the recorded IC50 for `C=CC(=O)N1C[C@H](C)N(c2nc(OC[C@@]34CCCN3C[C@H](F)C4)nc3cc(-c4ccc(F)c5sc(N)c(C#N)c45)c(C(F)(F)F)nc23)C[C@H]1C` .
≤ 500 nM

In the following, a different compound is considered.
Please report the recorded IC50 for `C=CC(=O)N1CC[C@@H](N(C)c2nc(N3CC(N4CC5(CC5)C4)C3)nc3c(F)c(-c4ccc(F)c5sc(N)c(C#N)c45)ncc23)C1` .
≤ 500 nM
